Provide the recorded Papp for the entries that follow.
- assay_text: in vitro
- test_context: PAMPA, pH 7.4
Give your result in ×10⁻⁶ cm/s as a bare value.

Briefly, Papp measured for CC(NC(=O)C1CCN(C(=O)c2cc3ccccc3n2Cc2ccc(Cl)cc2)CC1)c1ccncc1 (stereo not shown) [27a] : 102

Briefly, Papp measured for O=C(NCCc1ccncc1)C1CCN(C(=O)c2cc(F)cn2Cc2ccc(Cl)cc2)CC1 [29k] : 12.6

Briefly, Papp measured for O=C(NCCc1ccncc1)C1CCN(C(=O)c2cc3ccccc3n2Cc2ccc(Cl)cc2)CC1 [27g] : 66.1

Briefly, Papp measured for O=C(NCCn1ccnc1)C1CCN(C(=O)c2cc3ccccc3n2Cc2ccc(Cl)cc2)CC1 [27o] : 1.74

The values you see were collected from paper PMC3895407.
